Reference source for all entries: ChEMBL document CHEMBL1124134

Each entry below carries its reported EC50.
tested on: HL-60; assay: Median-effective concentration for inhibition of human HL-60 cell growth at 48 h; format: functional; settings: HL-60, 48 h, read-out: ED50 (the source's name)

A selection of reference data follows.
INSERT INTO assay_data (molecule, quantity_name, test_result) VALUES
  ('Cc1c(CNc2ccc(C(=O)NC(CCC(=O)O)C(=O)O)cc2)cnc2nc(N)nc(N)c12 (centres undefined)', 'EC50', '150 nM'),
  ('Cc1nc2nc(N)nc(N)c2cc1CNc1ccc(C(=O)NC(CCC(=O)O)C(=O)O)cc1 (centres undefined)', 'EC50', '2000 nM'),
  ('Cc1nc2nc(N)nc(N)c2c(C)c1CNc1ccc(C(=O)NC(CCC(=O)O)C(=O)O)cc1 (centres undefined)', 'EC50', '8200 nM');

Q: Field request: EC50 | item: CN(Cc1cnc2nc(N)nc(N)c2n1)c1ccc(C(=O)N[C@@H](CCC(=O)O)C(=O)O)cc1 [METHOTREXATE]
A: < 50 nM
